Test system: U2OS
Experiment: Incucyte cell viability with U2OS; note: unitless GR value; below 1 slowed growth and below 0 cell loss
Assay type: toxicity, cell-based
Conditions: human, 18 h, 10 µM, compound concentration 10 uM, replicate number 2
experimental_endpoint: Growth Rate
The answer should be written as a number, with no unit following it.

{"compound": "CCCCC[C@H](O)/C=C/[C@H]1[C@H](O)CC(=O)[C@@H]1CCCCCCC(=O)O [ALPROSTADIL]", "Growth Rate": 0.76}
{"compound": "CCOC(=O)CS(=O)(=O)c1ccc([C@@H](CO)NC(=O)c2cc3c(Cl)c(Cl)c(C)cc3n2C)cc1", "Growth Rate": 0.87}
{"compound": "CN(CCCCCCC1=C(c2cc(F)cc(F)c2)CCCc2cc(O)ccc21)CCCCS(=O)(=O)CCCC(F)(F)F", "Growth Rate": -0.58}
{"compound": "Cn1cncc1-c1cn(-c2cccc(C(=O)Nc3cccc(C(F)(F)F)c3)c2)nn1", "Growth Rate": 0.89}
{"compound": "CNc1ncc2cc(-c3ccc(-c4cccc(C)n4)cc3Cl)c(=O)n(C[C@H]3OC[C@H](N)CO3)c2n1", "Growth Rate": 0.77}

**Query** So what's the measured Growth Rate for this one? C=C(F)C(=O)N1CCN(c2nc(OC[C@@H]3CCCN3C)nc3c2CCN(c2cccc4cccc(Cl)c24)C3)C[C@@H]1CC#N [ADAGRASIB]
**Result** -0.27

**Query** So what's the measured Growth Rate for this one? "CN(C)C/C=C/C(=O)Nc1cccc(C(=O)Nc2ccc(Nc3nccc(-c4cccnc4)n3)cc2)c1"
**Result** 0.42
